Molecular target: mouse CXCR4 (mCXCR4) (Mus musculus (Mouse), UniProt P70658)
Sequence (P70658 whole entry): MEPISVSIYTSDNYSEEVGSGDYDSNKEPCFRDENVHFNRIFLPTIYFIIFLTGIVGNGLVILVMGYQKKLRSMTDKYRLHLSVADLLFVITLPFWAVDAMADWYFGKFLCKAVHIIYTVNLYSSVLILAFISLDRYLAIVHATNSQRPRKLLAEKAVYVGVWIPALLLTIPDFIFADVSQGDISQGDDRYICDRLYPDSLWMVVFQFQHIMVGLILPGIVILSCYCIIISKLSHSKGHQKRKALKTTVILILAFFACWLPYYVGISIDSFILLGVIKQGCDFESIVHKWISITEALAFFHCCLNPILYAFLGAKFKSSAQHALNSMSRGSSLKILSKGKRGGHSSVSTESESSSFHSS
Test: Competition binding on Eμ-Myc1080 mouse B-cell lymphoma cells with [125I]R1 as radioligand
Conditions: 200.000 cells/sample, [125I]R1 radioligand, mean ± SD
Endpoint: IC50 (nM)
Numbers only, in nM.

Chem Smiles	Test System	IC50 [nM]
C[C@@H]1C(=O)N[C@@H](CCCNC(=N)N)C(=O)N[C@@H](Cc2ccc3ccccc3c2)C(=O)NCC(=O)N[C@H](Cc2ccc(O)cc2)C(=O)N1CCCCCCNC(=N)NCCCCCCNC(=O)CCCCCN1/C(=C/C=C/C=C/C2=[N+](CCCCCC(=O)NCCCCCCNC(=N)NCCCCCCN3C(=O)[C@@H](Cc4ccc(O)cc4)NC(=O)CNC(=O)[C@H](Cc4ccc5ccccc5c4)NC(=O)[C@H](CCCNC(=N)N)NC(=O)[C@H]3C)c3ccc(S(=O)(=O)[O-])cc3C2(C)C)C(C)(C)c2cc(S(=O)(=O)O)ccc21	mouse CXCR4 (mCXCR4) (Mus musculus (Mouse), UniProt P70658)	136

Consider the additional compound presented here.
Ask | What measured IC50 goes with `C[C@@H]1C(=O)N[C@@H](CCCNC(=N)N)C(=O)N[C@@H](Cc2ccc3ccccc3c2)C(=O)NCC(=O)N[C@H](Cc2ccc(O)cc2)C(=O)N1CCCCCCNC(=N)NCCCCCCNC(=O)CCCCC[N+]1=C(/C=C/C=C/C=C2/N(C)c3ccc(S(=O)(=O)O)cc3C2(C)C)C(C)(C)c2cc(S(=O)(=O)[O-])ccc21` ?
Reply | 156

---

Biological target: human CXCR4 (hCXCR4) (Homo sapiens (Human))
Sequence (P61073 whole entry): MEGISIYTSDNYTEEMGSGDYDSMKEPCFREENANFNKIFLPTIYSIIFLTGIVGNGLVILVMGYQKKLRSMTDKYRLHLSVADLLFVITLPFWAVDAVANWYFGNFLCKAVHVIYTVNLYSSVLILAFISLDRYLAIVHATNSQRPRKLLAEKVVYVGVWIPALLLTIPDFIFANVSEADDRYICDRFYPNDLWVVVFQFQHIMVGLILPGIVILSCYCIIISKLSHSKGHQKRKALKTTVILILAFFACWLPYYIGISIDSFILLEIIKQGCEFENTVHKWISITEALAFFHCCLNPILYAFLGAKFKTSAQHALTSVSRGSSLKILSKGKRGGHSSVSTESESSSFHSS
Test: Competition binding on Jurkat cells with [125I]R1 as radioligand
Conditions: 200.000 cells/sample, [125I]R1 radioligand, mean ± SD
Endpoint: IC50
# include the unit after the value

Working through the 3 molecules below one at a time, give IC50 for each.
1. C[C@@H]1C(=O)N[C@@H](CCCNC(=N)N)C(=O)N[C@@H](Cc2ccc3ccccc3c2)C(=O)NCC(=O)N[C@H](Cc2ccc(O)cc2)C(=O)N1CCCCCCNC(=N)NCCCCCCNC(=O)CCOCCOCCOCCOCCNC(=O)CCCCC[N+]1=C(/C=C/C=C/C=C2/N(C)c3ccc(S(=O)(=O)O)cc3C2(C)C)C(C)(C)c2cc(S(=O)(=O)[O-])ccc21
2. C[C@@H]1C(=O)N[C@@H](CCCNC(=N)N)C(=O)N[C@@H](Cc2ccc3ccccc3c2)C(=O)NCC(=O)N[C@H](Cc2ccc(O)cc2)C(=O)N1CCCCCCNC(=N)NCCCCCCNC(=O)CCCCCN1/C(=C/C=C/C=C/C2=[N+](CCCCCC(=O)NCCCCCCNC(=N)NCCCCCCN3C(=O)[C@@H](Cc4ccc(O)cc4)NC(=O)CNC(=O)[C@H](Cc4ccc5ccccc5c4)NC(=O)[C@H](CCCNC(=N)N)NC(=O)[C@H]3C)c3ccc(S(=O)(=O)[O-])cc3C2(C)C)C(C)(C)c2cc(S(=O)(=O)O)ccc21
3. C[C@@H]1C(=O)N[C@@H](CCCNC(=N)N)C(=O)N[C@@H](Cc2ccc3ccccc3c2)C(=O)NCC(=O)N[C@H](Cc2ccc(O)cc2)C(=O)N1CCCCCCNC(=N)NCCCCCCNC(=O)CCCCC[N+]1=C(/C=C/C=C/C=C2/N(C)c3ccc(S(=O)(=O)O)cc3C2(C)C)C(C)(C)c2cc(S(=O)(=O)[O-])ccc21

Reply |
["91 nM", "115 nM", "156 nM"]

Ask | Which measured IC50 belongs to C[C@@H]1C(=O)N[C@@H](CCCNC(=N)N)C(=O)N[C@@H](Cc2ccc3ccccc3c2)C(=O)NCC(=O)N[C@H](Cc2ccc(O)cc2)C(=O)N1CCCCCCNC(=N)NCCCCCCNC(=O)CN1CCN(CC(=O)O)CCN(CC(=O)O)CCN(CC(=O)O)CC1 (natGa complex, metal not drawn) , tested on human CXCR4 (hCXCR4) (Homo sapiens (Human))?
Reply | 13 nM
